Assay: yeast display, Sf9 membrane polyspecificity reagent, FACS + sequencing; frameworks hold sequencing errors
assay-endpoint: polyreactivity (PSR sort gate)

# residue-sequence, readout-value
rows = [
    ("QVQLLESGGGLVQAGGSLRLSCAAYGFIFVSNGMGWYRQAPGKEREFVASITSIGGSTYYADSVKGRFTISRDNAKNTVYLQMNSLKPEDTAVYYCAARDIALNAVGRPKEYNRDYWGQGTQVTVSS", "low polyreactivity"),
    ("QVQLVESGGGLVQAGGSLRLSCAASGFTFQGNVMGWYRQAPGKERELVAVITSGGSTYYADSVKGRFTISRDNAKNTVYLQMNSLKPEDTAVYYCAKLYNSYTWKYGYWGQGTQVTVSS", "high polyreactivity"),
    ("QVQLVESGGGLDQAGGSLRLSCAASGSTFSRYAMGWYRQPPGKERELVAAISWRGGSTYYADSVKGRFTISRDNAKNTVYLQMNSLKPEDTAVYYCNKAGFWFVVYKRQEYWGQGTQVTVSS", "high polyreactivity"),
    ("QVQLVESGGGLVQAGGSLRLSCAASGSIFKWYTMGWYRQAPGKERELVAGISRGGSTYYADSVKGRFTISRDNAKNTVYLQMNSLKPEDTAVYYCAKASAIWRGDVKYYYWGQGTQVTVSS", "high polyreactivity"),
    ("QVQLVESGGGLVHAGGSLRLSCAASGYTFDSYTMGWYRQAPGKERELVAAISGRGGSTYYADSVKGRFTISRDNAKNTVYIQMNSLKPEDTAVYYCNTYPPIGYDYWGQGTQVTVSS", "low polyreactivity"),
    ("QVQLVESGGGLVQAGGSLRLSCAASGSTLFYAMGWYRQAPGKERELVAAISWSGGSTRYADSVKGRFTISRDNAKNTVYLQMNSLKPEDTAVYYCNTYTKHTGYYWKYDYWGQGTQVTVSS", "low polyreactivity"),
    ("QVQLVESGGGLVQAGGSLRLISAASGSIFVGNAMGWYRQSPGKERELVAAISRSGGRTYYADSVKGRFTISRDNAKNTVYLQMNSLKPEDTAVYYCNAYGWEQRQMDSWGQGTQVTVSS", "high polyreactivity"),
    ("QVQLVESGGGLVQAGGSLRLSCAASGFIFTRNAMGWYRQAPGKERELVATISRSGSSTSYADSVKGRFTISRDNAKNTVYLQMNRLKPEDTAVYYCAATYIYRHSVISRYDYWGQGTQVTVSS", "high polyreactivity"),
    ("QVLLVESGGGLVQAGGSLRISCAASGRISSRNAMGWYRQAPGKERELVAGITSGGSTNYADSLKGRFTISRDNAKNTVYLQMNSLKPEDTAVYYCAKRSRTYRYGYDYWGQGTQVTVSS", "high polyreactivity"),
    ("QVQLVESGGGLFQAGRSLRLSSPASGSSFISYAMGWYRQAPGKDRELVAAITSRGGRTYYADSVKGRFTISRDNAKYTVDLQMNCLKPDDTAVYYCAASFSYRIRRYDYWGQGTQVTVSS", "high polyreactivity"),
    ("QVQLVESGGGLVQAGGSLRLSCAASGFTFLRYAMGWYRQAPGKESELVAAISTSGGSTSYADSVKGRFTISRDNAKNTVYLQMNSLKPEDTAVYYCNAVLYKVSISEYDYWGQGTQVTVSS", "high polyreactivity"),
]
